Please respond with reported IC50 for every item in the list.
Target: MMP13 (Homo sapiens, UniProt P45452)
Construct: purchased Enzo Life Sciences, Inc. BML-AK412
Experiment: MMP-13 colorimetric inhibition assay (Enzo kit BML-AK412)
Assay type: biochemical

## Input What IC50 value was documented for this molecule, O=C(NO)[C@H]1[C@@H]2CC[C@H](CN1S(=O)(=O)c1ccc(Oc3ccc(OCC(F)(F)F)cc3)nc1)N2C(=O)N1CCOCC1 [Example 72] ?
## Output < 50 nM

## Input What IC50 value was documented for this molecule, COCCOC(=O)N1[C@@H]2CC[C@H]1[C@H](C(=O)NO)N(S(=O)(=O)N1CCC(Oc3ccc(Cl)cc3)C1)C2 (some centres unmarked) [Example 46] ?
## Output 50 to 1000 nM

## Input What IC50 value was documented for this molecule, COCCOC(=O)N1[C@@H]2CC[C@H]1[C@H](C(=O)NO)N(S(=O)(=O)c1ccc(OC3CCC(OC)CC3)nc1)C2 (some centres unmarked) [Example 11] ?
## Output 50 to 1000 nM

## Input What IC50 value was documented for this molecule, CCOc1ccc(Oc2ccc(S(=O)(=O)N3C[C@H]4CC[C@@H]([C@@H]3C(=O)NO)N4C(=O)OCCOC)cn2)cc1 [Example 29] ?
## Output < 50 nM

Read the next record carefully.
## Input What IC50 value was documented for this molecule, COCCOC(=O)N1[C@@H]2CC[C@H]1[C@H](C(=O)NO)N(S(=O)(=O)N1CCC(Oc3ccc(F)cc3)C1)C2 (some centres unmarked) [Example 47] ?
## Output 1000 to 10000 nM

* * *

Target: MMP1 (Homo sapiens)
Sequence (P03956 100-269 limits assumed): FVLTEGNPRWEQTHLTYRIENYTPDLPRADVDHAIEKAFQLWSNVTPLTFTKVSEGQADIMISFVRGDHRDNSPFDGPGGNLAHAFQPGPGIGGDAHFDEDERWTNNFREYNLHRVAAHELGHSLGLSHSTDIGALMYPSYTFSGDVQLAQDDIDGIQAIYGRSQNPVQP
Experiment: MMP-1 colorimetric inhibition assay (Enzo kit BML-AK404)
Assay type: biochemical
Conditions: thiopeptide substrate, absorbance 415 nm; read-out: MMP 1 IC50 class
recorded endpoint: IC50

Use these answered entries as a reference point.
## Input What IC50 value was documented for this molecule, COCCOC(=O)N1[C@@H]2CC[C@H]1[C@H](C(=O)NO)N(S(=O)(=O)c1ccc(Oc3ccc(C)cc3)nc1)C2 ?
## Output 50 to 1000 nM

## Input What IC50 value was documented for this molecule, COCCOC(=O)N1[C@@H]2CC[C@H]1[C@H](C(=O)NO)N(S(=O)(=O)c1ccc(OC3CCCCC3)nc1)C2 ?
## Output 50 to 1000 nM

## Input What IC50 value was documented for this molecule, COCCOC(=O)N1[C@@H]2CC[C@H]1[C@H](C(=O)NO)N(S(=O)(=O)N1CCC(Oc3ccnc(C(F)(F)F)c3)CC1)C2 ?
## Output > 10000 nM

## Input What IC50 value was documented for this molecule, COCCOC(=O)N1[C@@H]2CC[C@H]1[C@H](C(=O)NO)N(S(=O)(=O)N1CCN(Cc3ccc(OC)cc3)CC1)C2 ?
## Output > 10000 nM

I have 3 molecules here; please give me IC50 for each one.
1. COCCOC(=O)N1[C@@H]2CC[C@H]1[C@H](C(=O)NO)N(S(=O)(=O)c1ccc(Oc3cncc(F)c3)nc1)C2
2. COCCOC(=O)N1[C@@H]2CC[C@H]1[C@H](C(=O)NO)N(S(=O)(=O)c1ccc(OC3CCOCC3)nc1)C2
3. COCCOC(=O)N1[C@@H]2CC[C@H]1[C@H](C(=O)NO)N(S(=O)(=O)c1ccc(Oc3cncc(Cl)c3)nc1)C2

## Output
["50 to 1000 nM", "1000 to 10000 nM", "1000 to 10000 nM"]

Numbers sourced from patent US20250215010A1.
